Values compiled from paper PMC7697191.

# ASSAY_NOTES: in vitro
# COND: dog
REPORTED_ENDPOINT: CC50 at 72 h

Below, each entry is followed by its recorded CC50 at 72 h result.
>>> df
                                   molecule    result
0  CCC(CC)O[C@@H]1C=C(C(=O)O)C[C@H](N)[C@H]1NC(C)=O [OC, Oseltamivir carboxylate, reference compound]  > 100 µM
1        Cc1cccnc1CCNc1nc2nonc2nc1NCc1cccs1  > 100 µM
2  O=C(O)[C@H]1C2CCC(CC2)[C@@H]1Nc1nc(-c2c[nH]c3ncc(F)cc23)ncc1F [VX-787, reference compound]  > 100 µM
3  O=C(NCc1nc(C2CCCCC2)no1)c1cc(-c2ccccc2F)n[nH]1  > 100 µM

Answer for every listed entry: what is its CC50 at 72 h? The entries follow.
1. Cc1cc(CN2CCOc3c(O)cc(-c4ccccc4Cl)cc3C2)on1
2. c1csc(CNc2nc3nonc3nc2NCCCN2CCOCC2)c1
3. c1cc(Cn2ccnc2-c2nc3c(s2)CCCC3)cc(-c2nnn[nH]2)c1
4. CCSc1ncc(-c2cc(-c3c(C)nn(C)c3C)nc(N)c2C#N)cn1
5. C=CCn1cc(-c2cc(-c3ccc(C(=O)O)cc3)[nH]c(=N)c2C#N)cn1
6. Cc1c(-c2ccccc2F)[nH]c2ccc(CNC(=O)CCc3cc(O)no3)cc12

["> 100 µM", "> 100 µM", "> 100 µM", "> 100 µM", "> 100 µM", "> 100 µM"]

Quick request: CC50 at 72 h for each listed item, please.
1. C=CCn1cc(CNCc2noc(-c3ccc4c(c3)OCO4)n2)c(C)n1
2. NS(=O)(=O)CCCC(=O)NCc1ccc2[nH]c3c(c2c1)CCCCCC3

1. > 100 µM
2. > 100 µM

====

# TARGET_SYSTEM: H1N1 PB2 CBD (Influenza A virus, UniProt P03427)
# Sequence (P03427 318-486 limits assumed): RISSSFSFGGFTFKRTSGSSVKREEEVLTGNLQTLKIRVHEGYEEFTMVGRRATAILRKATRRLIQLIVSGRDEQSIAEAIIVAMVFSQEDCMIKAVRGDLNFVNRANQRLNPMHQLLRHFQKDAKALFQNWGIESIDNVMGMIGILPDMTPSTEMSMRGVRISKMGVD
pKd: −log10 of the molar value.
Cut-off 6 on pKd, inclusive. At or above means label 1; below means label 0.

Worked examples follow.
In [3]: df
Out[3]:
                                   compound  category_label
0  O=C(O)[C@H]1C2CCC(CC2)[C@@H]1Nc1nc(-c2c[nH]c3ncc(F)cc23)ncc1F [VX-787, reference compound]         label 1
1  c1cc(Cn2ccnc2-c2nc3c(s2)CCCC3)cc(-c2nnn[nH]2)c1         label 0
2  Cc1cc(CN2CCOc3c(O)cc(-c4ccccc4Cl)cc3C2)on1         label 0

Could you now consider this next compound?
Form field: pKd at least 6? Entry: `Cc1c(-c2ccccc2F)[nH]c2ccc(CNC(=O)CCc3cc(O)no3)cc12`
label 0
